# particulars: in isopropanol, 308.15 K
value_type: solubility (mole fraction)

* CCOc1ccc2ccccc2c1C(=O)O | 0.058

###

# particulars: in ethyl acetate, 303.15 K
value_type: solubility (mole fraction)

- CCOc1ccc2ccccc2c1C(=O)O: 0.0331

###

# particulars: in n-pentanol, 308.15 K
value_type: solubility (mole fraction)

• CCOc1ccc2ccccc2c1C(=O)O = 0.052

###

# particulars: in isopropyl acetate, 313.15 K
value_type: solubility (mole fraction)

- CCOc1ccc2ccccc2c1C(=O)O: 0.0333

###

# particulars: in n-propyl acetate, 293.15 K
value_type: solubility (mole fraction)

- CCOc1ccc2ccccc2c1C(=O)O: 0.0204

###

# particulars: in isobutanol, 318.15 K
value_type: solubility (mole fraction)

* CCOc1ccc2ccccc2c1C(=O)O | 0.0623

###

# particulars: in isobutanol, 303.15 K
value_type: solubility (mole fraction)

- CCOc1ccc2ccccc2c1C(=O)O: 0.0322

###

# particulars: in ethanol, 288.15 K
value_type: solubility (mole fraction)

• CCOc1ccc2ccccc2c1C(=O)O = 0.0392

###

# particulars: in ethyl acetate, 298.15 K
value_type: solubility (mole fraction)

- CCOc1ccc2ccccc2c1C(=O)O: 0.0279

###

# particulars: in ethanol, 313.15 K
value_type: solubility (mole fraction)

- CCOc1ccc2ccccc2c1C(=O)O: 0.101

###

# particulars: in acetone, 298.15 K
value_type: solubility (mole fraction)

- CCOc1ccc2ccccc2c1C(=O)O: 0.089

###

# particulars: in acetonitrile, 313.15 K
value_type: solubility (mole fraction)

- CCOc1ccc2ccccc2c1C(=O)O: 0.0254

###

# particulars: in ethyl acetate, 293.15 K
value_type: solubility (mole fraction)

• CCOc1ccc2ccccc2c1C(=O)O = 0.0239

###

# particulars: in acetonitrile, 298.15 K
value_type: solubility (mole fraction)

- CCOc1ccc2ccccc2c1C(=O)O: 0.0135

###

# particulars: in ethyl acetate, 278.15 K
value_type: solubility (mole fraction)

* CCOc1ccc2ccccc2c1C(=O)O | 0.015

###

# particulars: in methyl acetate, 313.15 K
value_type: solubility (mole fraction)

- CCOc1ccc2ccccc2c1C(=O)O: 0.0495

###

# particulars: in acetonitrile, 283.15 K
value_type: solubility (mole fraction)

* CCOc1ccc2ccccc2c1C(=O)O | 0.00747

###

# particulars: in methyl acetate, 288.15 K
value_type: solubility (mole fraction)

• CCOc1ccc2ccccc2c1C(=O)O = 0.0215

###

# particulars: in isopropyl acetate, 278.15 K
value_type: solubility (mole fraction)

• CCOc1ccc2ccccc2c1C(=O)O = 0.0118

###

# particulars: in isopropyl acetate, 318.15 K
value_type: solubility (mole fraction)

* CCOc1ccc2ccccc2c1C(=O)O | 0.0389

###

# particulars: in methyl acetate, 298.15 K
value_type: solubility (mole fraction)

• CCOc1ccc2ccccc2c1C(=O)O = 0.0301

###

# particulars: in methanol, 283.15 K
value_type: solubility (mole fraction)

• CCOc1ccc2ccccc2c1C(=O)O = 0.037

###

# particulars: in n-propyl acetate, 323.15 K
value_type: solubility (mole fraction)

• CCOc1ccc2ccccc2c1C(=O)O = 0.0516

###

# particulars: in ethyl acetate, 318.15 K
value_type: solubility (mole fraction)

* CCOc1ccc2ccccc2c1C(=O)O | 0.0526

###

# particulars: in methyl acetate, 293.15 K
value_type: solubility (mole fraction)

• CCOc1ccc2ccccc2c1C(=O)O = 0.0254

###

# particulars: in ethanol, 283.15 K
value_type: solubility (mole fraction)

• CCOc1ccc2ccccc2c1C(=O)O = 0.0325

###

# particulars: in isopropyl acetate, 303.15 K
value_type: solubility (mole fraction)

- CCOc1ccc2ccccc2c1C(=O)O: 0.0245

###

# particulars: in methanol, 318.15 K
value_type: solubility (mole fraction)

* CCOc1ccc2ccccc2c1C(=O)O | 0.134

###

# particulars: in isopropyl acetate, 288.15 K
value_type: solubility (mole fraction)

• CCOc1ccc2ccccc2c1C(=O)O = 0.0155

###

# particulars: in n-pentanol, 318.15 K
value_type: solubility (mole fraction)

• CCOc1ccc2ccccc2c1C(=O)O = 0.0744

###

# particulars: in n-propyl acetate, 283.15 K
value_type: solubility (mole fraction)

* CCOc1ccc2ccccc2c1C(=O)O | 0.0149

###

# particulars: in isobutanol, 293.15 K
value_type: solubility (mole fraction)

• CCOc1ccc2ccccc2c1C(=O)O = 0.0208

###

# particulars: in isobutanol, 283.15 K
value_type: solubility (mole fraction)

* CCOc1ccc2ccccc2c1C(=O)O | 0.0138

###

# particulars: in isopropyl acetate, 283.15 K
value_type: solubility (mole fraction)

- CCOc1ccc2ccccc2c1C(=O)O: 0.0136

###

# particulars: in methanol, 323.15 K
value_type: solubility (mole fraction)

- CCOc1ccc2ccccc2c1C(=O)O: 0.151

###

# particulars: in isopropanol, 313.15 K
value_type: solubility (mole fraction)

- CCOc1ccc2ccccc2c1C(=O)O: 0.0733

###

# particulars: in acetone, 318.15 K
value_type: solubility (mole fraction)

* CCOc1ccc2ccccc2c1C(=O)O | 0.142

###

# particulars: in ethanol, 293.15 K
value_type: solubility (mole fraction)

• CCOc1ccc2ccccc2c1C(=O)O = 0.0469

###

# particulars: in acetonitrile, 278.15 K
value_type: solubility (mole fraction)

• CCOc1ccc2ccccc2c1C(=O)O = 0.00615

###

# particulars: in ethyl acetate, 288.15 K
value_type: solubility (mole fraction)

- CCOc1ccc2ccccc2c1C(=O)O: 0.0204

###

# particulars: in acetonitrile, 323.15 K
value_type: solubility (mole fraction)

• CCOc1ccc2ccccc2c1C(=O)O = 0.0378

###

# particulars: in methyl acetate, 308.15 K
value_type: solubility (mole fraction)

• CCOc1ccc2ccccc2c1C(=O)O = 0.0417

###

# particulars: in methyl acetate, 318.15 K
value_type: solubility (mole fraction)

• CCOc1ccc2ccccc2c1C(=O)O = 0.0587

###

# particulars: in methanol, 313.15 K
value_type: solubility (mole fraction)

- CCOc1ccc2ccccc2c1C(=O)O: 0.114

###

# particulars: in n-propyl acetate, 308.15 K
value_type: solubility (mole fraction)

- CCOc1ccc2ccccc2c1C(=O)O: 0.0322

###

# particulars: in n-propanol, 293.15 K
value_type: solubility (mole fraction)

- CCOc1ccc2ccccc2c1C(=O)O: 0.0345

###

# particulars: in n-propanol, 288.15 K
value_type: solubility (mole fraction)

- CCOc1ccc2ccccc2c1C(=O)O: 0.0283

###

# particulars: in methanol, 288.15 K
value_type: solubility (mole fraction)

- CCOc1ccc2ccccc2c1C(=O)O: 0.0443

###

# particulars: in n-propyl acetate, 288.15 K
value_type: solubility (mole fraction)

• CCOc1ccc2ccccc2c1C(=O)O = 0.0177

###

# particulars: in isopropanol, 278.15 K
value_type: solubility (mole fraction)

- CCOc1ccc2ccccc2c1C(=O)O: 0.0148
